The origin of these recorded values is ChEMBL document CHEMBL5661986.

targetEntity: Cyclin-dependent kinase 2/cyclin E1 (Homo sapiens, UniProt P24941)
procedureDetails: Inhibition of CDK2/CyclinE (unknown origin) in presence of ATP
endpointLabel: IC50

[ask] State measured IC50 of the compound C[C@H]1CC(=O)Nc2cc(C(=O)NCCC3CC3)ccc2N1C(=O)N1CC2CC2C1 (stereo partly specified) with Cyclin-dependent kinase 2/cyclin E1 (Homo sapiens, UniProt P24941).
[reply] > 20 µM

###

procedureDetails: Dissociation constant, pKa of compound
Format: physicochemical
endpointLabel: pKa
Answer field: number only, no words.

[ask] For the compound "C[C@H]1CC(=O)Nc2cc(C(=O)NCCC3CC3)ccc2N1C(=O)N1CCCNCC1" , give its measured pKa value.
[reply] 8.8
